// data source = ChEMBL document CHEMBL1142115

test system: HepG2; assay: Cytotoxicity against human HepG2 cells by MTT assay; type: cell-based
measurementLabel: IC50 (µg/mL)
Numbers only, in µg/mL.

Example entries and their recorded answers appear below.
chemSmiles	measuredResult
C/C1=C\CC[C@](C)(O)/C=C/[C@H](C(C)C)CCc2coc(c2)C1	5.6
CC(C)[C@H]1/C=C/[C@@](C)(O)CC[C@@H](O)[C@@](C)(O)Cc2cc(co2)CC1	5.7

Next, consider the following compound.
Can you share its IC50? I mean this compound: `CC(C)[C@H]1/C=C/[C@@](C)(O)CC[C@@H](O)[C@@](C)(O)C[C@H]2C=C(CC1)C(=O)O2`
6.1

* * *

assay: Cytotoxicity against human KATO3 cells by MTT assay; format: cell-based
measurementLabel: IC50 (mg/L)
Answers are plain numbers, in mg/L.

Example entries and their recorded answers appear below.
chemSmiles	unitSpec	IC50
CC(C)[C@H]1/C=C/[C@@](C)(O)CC[C@@H](O)[C@@](C)(O)Cc2cc(co2)CC1	mg/L	8.2
CC(C)[C@H]1/C=C/[C@@](C)(O)CC[C@@H]2O[C@@]2(C)Cc2cc(co2)CC1	mg/L	6.8
CC(C)[C@H]1/C=C/[C@@](C)(O)CC[C@@H](O)[C@@](C)(O)C[C@H]2C=C(CC1)C(=O)O2	mg/L	8.1

Next, consider the following compound.
Can you share its IC50? I mean this compound: `C/C1=C\CC[C@](C)(O)/C=C/[C@H](C(C)C)CCc2coc(c2)C1`
5.9

* * *

test: Cytotoxicity against human CHAGO cells by MTT assay; format: cell-based
measurementLabel: IC50 (µg/mL)
Give bare numbers, in µg/mL.

Below are some compounds; for each one, tell me its IC50.
1. C/C1=C\CC[C@](C)(O)/C=C/[C@H](C(C)C)CCc2coc(c2)C1
2. CC(C)[C@H]1/C=C/[C@@](C)(O)CC[C@@H](O)[C@@](C)(O)C[C@H]2C=C(CC1)C(=O)O2
3. CC(C)[C@H]1/C=C/[C@@](C)(O)CC[C@@H](O)[C@@](C)(O)Cc2cc(co2)CC1

1: 7; 2: 9.3; 3: 7.1

* * *

Could you please report measured IC50 for the items listed next?
assay: Cytotoxicity against human BT474 cells by MTT assay; type: cell-based; conditions: BT-474

chemSmiles	IC50
C/C1=C\CC[C@](C)(O)/C=C/[C@H](C(C)C)CCc2coc(c2)C1	7.8 µg/mL
CC(C)[C@H]1/C=C/[C@@](C)(O)CC[C@@H]2O[C@@]2(C)Cc2cc(co2)CC1	9.5 µg/mL
CC(C)[C@H]1/C=C/[C@@](C)(O)CC[C@@H](O)[C@@](C)(O)Cc2cc(co2)CC1	9.6 µg/mL

Can you share its IC50? I mean this compound: `CC(C)[C@H]1/C=C/[C@@](C)(O)CC[C@@H](O)[C@@](C)(O)C[C@H]2C=C(CC1)C(=O)O2`
9.6 µg/mL
